System: Vero E6 infected with SARS-CoV-2
Experiment Description: inhibition of SARS-CoV-2 cytopathic effect; higher = more antiviral protection, active = above 15
Measurement Setup: 833.33 nM; 48 h
Would you kindly list inhibition of SARS-CoV-2 cytopathic effect for each of these molecules?
Numbers only, in %.

Answered cases to consult:
Molecule | Endpoint Unit | Data Value
CCOC(=O)N1CCC(=C2c3ccc(Cl)cc3CCc3cccnc32)CC1 [loratadine] | % | -0.88
NCCCCN(Cc1nc2ccccc2[nH]1)[C@H]1CCCc2cccnc21 | % | -1.81
CC(C)(C)c1nc(-c2cccc(NS(=O)(=O)c3c(F)cccc3F)c2F)c(-c2ccnc(N)n2)s1 [dabrafenib] | % | -1.77
O=C(Nc1c(-c2cccs2)nc2ccccn12)c1ccc(Cl)cc1 | % | 1.78
COc1cc2ncnc(Sc3nnc(C)s3)c2cc1OC | % | 1.54

Please give inhibition of SARS-CoV-2 cytopathic effect, item by item, for the list that follows.
1. CNC(=O)c1cc(COc2nnc(Nc3ccc(Cl)cc3)c3ccoc23)ccn1 [telatinib]
2. C[C@]12C=CC(=O)N[C@@H]1CC[C@@H]1[C@@H]2CC[C@]2(C)[C@@H](C(=O)Nc3cc(C(F)(F)F)ccc3C(F)(F)F)CC[C@@H]12 [dutasteride]

[0.04, -2.35]

Please give inhibition of SARS-CoV-2 cytopathic effect, item by item, for the list that follows.
1. Nc1cccc(CNC(=O)c2ccc(Oc3ccc(OCc4cccc(F)c4)cc3)nc2)c1
2. O=C(NCc1ccncc1)C12CC3CC(C1)CC(c1ccc(Cl)cc1)(C3)C2

0.65
-2.22

---

System: Vero E6 infected with SARS-CoV-2
Experiment Description: inhibition of SARS-CoV-2 cytopathic effect; higher = more antiviral protection, active = above 15
Measurement Setup: 100 nM; 48 h
Measured Endpoint: inhibition of SARS-CoV-2 cytopathic effect (%)
Give bare numbers, in %.

Answered cases to consult:
Compound | Data Value
Nc1ccncc1 [dalfampridine] | 1.64
Cc1ccc(=O)n(-c2ccc(O)cc2)c1 | 1.12
CN(Cc1ccccc1)C(=O)[C@H](Cc1ccc2ccccc2c1)NC(=O)[C@@H]1CCCN1C(=O)Nc1ccccc1[N+](=O)[O-] | 3.45
CC(C)NCC(O)COc1cccc2ccccc12 (centres undefined) [propranolol] | -0.637
CS(=O)(=O)N1CCN(Cc2cc3nc(-c4cccc5[nH]ncc45)nc(N4CCOCC4)c3s2)CC1 | 6.27

Please give inhibition of SARS-CoV-2 cytopathic effect, item by item, for the list that follows.
1. CC(=O)N1CCC(C(=O)N(CCCN2CCC(Cc3ccc(C(N)=O)cc3)CC2)c2ccc(C)c(Cl)c2)CC1
2. O=C(O[C@@H]1Cc2c(O)cc(O)cc2O[C@@H]1c1ccc(O)c(O)c1)c1cc(O)c(O)c(O)c1 [epicatechin-gallate-(-)]
3. Cc1nc2ccccn2c(=O)c1CCN1CCC(C(=O)c2ccc(F)cc2)CC1 [pirenperone]
4. CO[C@H]1C[C@@H]2CC[C@@H](C)[C@@](O)(O2)C(=O)C(=O)N2CCCC[C@H]2C(=O)O[C@H]([C@H](C)C[C@@H]2CC[C@@H](O)[C@H](OC)C2)CC(=O)[C@H](C)/C=C(\C)[C@@H](O)[C@@H](OC)C(=O)[C@H](C)C[C@H](C)/C=C/C=C/C=C/1C [sirolimus]

[-0.6, 5.77, -0.8, -1.82]

Please give inhibition of SARS-CoV-2 cytopathic effect, item by item, for the list that follows.
1. O=C(/C=C\n1cnc(-c2cc(C(F)(F)F)cc(C(F)(F)F)c2)n1)N1CC(F)(F)C1
2. COC(=O)C1=C(C#N)NC(C)=C(C(=O)OC(C)C)C1c1cccc([N+](=O)[O-])c1 (centres undefined) [nilvadipine]

1: -2.84; 2: 0.29

---

Would you kindly list inhibition of SARS-CoV-2 cytopathic effect for each of these molecules?
System: Vero E6 infected with SARS-CoV-2
Experiment Description: inhibition of SARS-CoV-2 cytopathic effect; higher = more antiviral protection, active = above 15
Measurement Setup: 10000 nM; 48 h
Answers are plain numbers, in %.

Please give inhibition of SARS-CoV-2 cytopathic effect, item by item, for the list that follows.
1. CC(C)(C)c1ccc(C(O)CCCN2CCC(C(O)(c3ccccc3)c3ccccc3)CC2)cc1 (stereo not drawn)
2. NCCCC[C@H](NC(=O)[C@@H]1CCCN1C(=O)[C@@H]1CSSC[C@H](N)C(=O)N[C@@H](Cc2ccc(O)cc2)C(=O)N[C@@H](Cc2ccccc2)C(=O)N[C@@H](CCC(N)=O)C(=O)N[C@@H](CC(N)=O)C(=O)N1)C(=O)NCC(N)=O
3. CC[N+](C)(CC)CCC[n+]1c(-c2ccccc2)c2cc(N)ccc2c2ccc(N)cc21 [propidium-iodide]
4. Oc1cc(O)cc(O)c1

1. -21.1
2. 0.67
3. 2.62
4. -2.03

Please give inhibition of SARS-CoV-2 cytopathic effect, item by item, for the list that follows.
1. COc1ccccc1N1CCN(CCCCNC(=O)c2ccc3ccccc3c2)CC1
2. O=C(NCC(=O)N1CC[C@H](N[C@H]2CC[C@@](O)(c3ccc(-c4ncccn4)cn3)CC2)C1)c1cccc(C(F)(F)F)c1
3. CN/C(=N\c1ccc(C2=NNC(=O)CC2C)cc1)NC#N (stereo not drawn)
4. O=C(Nc1cc(Oc2cc(F)c(NC(=O)C3(C(=O)Nc4ccc(F)cc4)CC3)cc2F)ccn1)C1CC1
5. Cc1nc2ccc(NC(=O)Nc3ccnc4cccnc34)cc2o1

1: -6.44; 2: -0.61; 3: -1.34; 4: 1.09; 5: -0.97

Please give inhibition of SARS-CoV-2 cytopathic effect, item by item, for the list that follows.
1. Cc1ccccc1N1CCN(S(=O)(=O)C[C@]23CC[C@H](C[C@@H]2NC(=O)[C@@H](N)CCS(C)(=O)=O)C3(C)C)CC1
2. O=C1c2c(O)cc(O)cc2O[C@H](c2cc(O)c(O)c(O)c2)[C@H]1O [dihydromyricetin]
3. COc1cc2c(cc1OC)C(=O)C(CC1CCN(Cc3ccccc3)CC1)C2 (stereo not drawn)
4. CC(C)NCC(O)c1ccc2ccccc2c1 (stereo not drawn)
5. CCn1c(=O)c(-c2ccc(Cl)cc2Cl)cc2cnc(Nc3ccc(N4CCNCC4)c(F)c3)nc21

1: 0.11; 2: -1.52; 3: -8.45; 4: -1.64; 5: -4.65

Please give inhibition of SARS-CoV-2 cytopathic effect, item by item, for the list that follows.
1. O=C(O)CCC(=O)O
2. OC[C@H]1O[C@H](O[C@H]2O[C@H](CO)[C@@H](O)[C@H](O)[C@H]2O)[C@H](O)[C@@H](O)[C@@H]1O
3. CC#CCn1c(N2CCC[C@@H](N)C2)nc2c1c(=O)n(Cc1nc(C)c3ccccc3n1)c(=O)n2C
4. Cc1nc(-c2cccnc2)sc1C(=O)Nc1ccccc1-c1cn2c(CN3CCOCC3)csc2n1

[2.3, 0.76, -11.3, -2.05]

---

Test system: Vero E6 infected with SARS-CoV-2
Experiment Description: inhibition of SARS-CoV-2 cytopathic effect; higher = more antiviral protection, active = above 15
Measurement Setup: 1 nM; 48 h
Would you kindly list inhibition of SARS-CoV-2 cytopathic effect for each of these compounds?
Give bare numbers, in %.

Please give inhibition of SARS-CoV-2 cytopathic effect, item by item, for the list that follows.
1. CCc1cccc(CC)c1NC(=O)N1Cc2[nH]nc(NC(=O)c3ccc(N4CCN(C)CC4)cc3)c2C1
2. CC(C)(C)n1nc(-c2cccc3ccccc23)c2c(N)ncnc21 [1-naphthyl-PP1]
3. O=C(c1c2ccccc2cc2ccccc12)N1CCC(N2CCC[C@@H](C(=O)N3CCOCC3)C2)CC1
4. CC1Cc2ccccc2N1NC(=O)c1ccc(Cl)c(S(N)(=O)=O)c1 (stereo not given) [indapamide]
5. Cc1ccc(Cl)c(Nc2ccccc2C(=O)O)c1Cl [meclofenamic-acid]

1. -4.07
2. 0.05
3. -1.36
4. 0.88
5. -0.6

---

Tested on: Vero E6 infected with SARS-CoV-2
Experiment Description: inhibition of SARS-CoV-2 cytopathic effect; higher = more antiviral protection, active = above 15
Measurement Setup: 1 nM; 48 h
Would you kindly list inhibition of SARS-CoV-2 cytopathic effect for each of these compounds?
Numbers only, in %.

Answered cases to consult:
Compound | Data Value
CC[C@]12CCCN3CCc4c(n(c5ccccc45)C(=O)C1)[C@@H]32 | -4.83
CCn1c(=O)c(-c2cc[nH]n2)cc2c(C)nc(N)nc21 | 2.67
CCN(CC)CCOCCOC(=O)C1(c2ccccc2)CCCC1 | -0.34

Would you kindly look at the next entry?
Complete the entry with inhibition of SARS-CoV-2 cytopathic effect for CC1(C)CC[C@]2(NC(=O)C(C)(F)F)CC[C@]3(C)[C@H](C(=O)C=C4[C@@]5(C)C=C(C#N)C(=O)C(C)(C)[C@@H]5CC[C@]43C)[C@@H]2C1 [Omaveloxolone (RTA-408)]
4.28
